Would you kindly list Response of mAb-2 Binding to nFel d1 pre-complexed with mAb-1 for each of these binders?
target: T1, natural Fel d1 (Indoor Biotech, #NA-FD1-2) (cat, UniProt P30438 23-92; P30440 18-109); assay: Octet BLI sandwich; nFel d1 pre-complexed with captured mAb-1 H4H2864P (competitor); self-competition value subtracted
T1 construct: Bought natural heterodimeric glycoprotein, chains linked by disulfide bonds; also called nFel d1; nFel d 1
T1 sequence (P30438 other isoform, or with tags, fused parts or gaps, chain 1 of 2): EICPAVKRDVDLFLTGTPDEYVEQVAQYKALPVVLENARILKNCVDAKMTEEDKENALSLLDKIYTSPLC
T1 sequence (P30440 18-109, chain 2 of 2): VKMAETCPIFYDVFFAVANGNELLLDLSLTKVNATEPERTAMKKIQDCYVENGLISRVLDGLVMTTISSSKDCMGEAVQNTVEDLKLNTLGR
One number for each entry, in nm.

// solved cases for Response of mAb-2 Binding to nFel d1 pre-complexed with mAb-1 follow
binder="H4H1232N (antibody, human IgG4, V domains shown, human IgG4 Fc (H4H prefix)) VH: EVQLVESGGGLVKPGGSLRLSCAASGFTFRNYNINWVRQAPGKGLEWVSLISGSSSYIYYADSVKGRFTVSRDNAKNSLYLQMNSLRAEDTAVYYCARRTLSYYVMDVWGQGTTVTVSS VL: DIQVTQSPSPLSASVGDRVTITCRASQGISNYLAWYQQKPGRVPQLLIYAASTLQSGVPSRFSGSGSGTDFTLTISSLQPEDVATYYCQKYNSAPYTFGQGTKLEIK" unit_spec=nm result_number=0.3
binder="H4H1616N (antibody, human IgG4, V domains shown, human IgG4 Fc (H4H prefix)) VH: EVELLESGGGLVQPGGSLRLSCAASGFTFSSYAMSWVRQAPGKGLEWVSSISGRVGSTHFADSVKGRFTFSRDNSKNTLYLQLSSLRAEDTAVYYCARSRGAAYFDYWGQGTLVTVSS VL: DIQMTQSPSSLSASVGDRVTITCQANQDISNFLNWYQQRPGKAPNLLIYAASNLETGVPSRFSGSGSGTDFTFTISSLQPEDIATYYCQHYDNFPFTFGPGTKVDIK" unit_spec=nm result_number=0.01

Hi, could you look up Response of mAb-2 Binding to nFel d1 pre-complexed with mAb-1 for each item in my list?
1. H4H2864P (antibody, human IgG4, V domains shown, human IgG4 Fc (H4H prefix)) VH: EVQLVESGGGLAQPGGSLRLSCAASGFTFNNYAMTWVRQAPGKGLDWVSAISDSGRSTFSADSVKGRFTISRDNSKNTLYLQMDSLRAEDTALYYCAKHRNWNYPVFDYWGQGTLVTVSS VL: DIQLTQSPSFLSASVGDRVTITCWASQGISSYLAWYQQKPGKAPKLLIYSASTLQSGVPSRFSGSGSGTEFTLTISSLQPEDFATYYCQQLNSYPFTFGPGTKVDIK
2. H4H2645P (antibody, human IgG4, V domains shown, human IgG4 Fc (H4H prefix)) VH: EVQLVESGGGLVQPGGSLRLSCAASGFTFSTYAMHWVRQAPGKGLEWVSSISGRGRNSDHADSVKGRFTISRDNSKNTLYLQMNSLRAEDTAVYYCARTEYFHHWGQGTLVTVSS VL: DIQMTQSPSSLSASVGDRITITCRASQDINNYLAWFQQKPGKAPKSLIYGASSLQSGVPSKFSGSGSGTDFTLTISSLQPEDFATYYCQQYSSYPFTFGPGTKVDIK

0
-0.01
